# Assay info: Solubility Assay (HPLC)
# Assay type: physicochemical
# Measurement context: HEPES/NaCl buffer, aqueous with cosolvent or surfactant or cyclodextrin, kinetic from dmso stock; 20 mM HEPES, 100 mM NaCl, pH 7.5, 18-24 hours at ambient temperature; read-out: Solubility
Entries and their solubility

Structure smiles: C=C(NC(=O)c1csc(N2CCN(C(=O)COCCOC)CC2)n1)C(=O)NC(=C)C(=O)OC
solubility: > 1000 µM
//
Structure smiles: C=C(NC(=O)c1csc(N2CCN(C(=O)OC(C)(C)C)[C@@H](C)C2)n1)C(=O)NC(=C)C(=O)OC
solubility: < 100 µM
//
Structure smiles: C=C(NC(=O)c1csc(N2CCC(NC(=O)OC(C)(C)C)CC2)n1)C(=O)NC(=C)C(=O)OC
solubility: < 100 µM
//
Structure smiles: C=C(NC(=O)c1csc(-c2ccc(CNC(=O)OCCOC)cc2)n1)C(=O)NC(=C)C(=O)OC
solubility: 100 to 1000 µM
//
Structure smiles: C=C(NC(=O)c1csc(C2CCN(C(=O)OC(C)(C)C)CC2)n1)C(=O)NC(=C)C(=O)OC
solubility: 100 to 1000 µM
//
Structure smiles: C=C(NC(=O)c1csc(-c2ccc(C(=O)NCCCCCCOS(C)(=O)=O)nc2)n1)C(=O)NC(=C)C(=O)OC
solubility: < 100 µM
//
Structure smiles: C=C(NC(=O)c1csc(-c2ccc(NC(=O)OC(C)(C)C)cc2)n1)C(=O)NC(=C)C(=O)OC
solubility: < 100 µM
